# tested.on: MycN protein (n-myc) (Homo sapiens)
# Construct: either 2×10^6 of L-363 (human leukemia cell line) or SKNBE2 (neuroblastoma cell line) cells; endogenous in cells; host or cells: SKNBE2 / SK-N-BE(2) neuroblastoma cells
# Sequence (P04198 1-464): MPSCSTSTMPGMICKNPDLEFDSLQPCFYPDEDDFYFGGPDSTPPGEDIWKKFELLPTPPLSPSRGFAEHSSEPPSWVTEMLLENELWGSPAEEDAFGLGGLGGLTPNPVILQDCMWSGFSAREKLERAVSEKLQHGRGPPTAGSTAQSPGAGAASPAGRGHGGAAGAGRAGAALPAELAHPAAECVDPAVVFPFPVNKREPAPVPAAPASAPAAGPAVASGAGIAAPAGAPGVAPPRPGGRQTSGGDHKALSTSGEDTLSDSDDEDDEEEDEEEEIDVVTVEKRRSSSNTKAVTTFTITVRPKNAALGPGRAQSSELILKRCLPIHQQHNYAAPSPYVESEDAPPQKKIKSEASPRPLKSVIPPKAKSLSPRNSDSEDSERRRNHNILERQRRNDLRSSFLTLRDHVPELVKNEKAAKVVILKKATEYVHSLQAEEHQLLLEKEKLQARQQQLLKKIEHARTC
# protocol.text: Degradation of MycN protein, 24 h treatment, JESS Western, SK-N-BE(2) cells (Example 161)
# Type: cell-based
# reported.conditions: SKNBE2 cells, 0.5 μM
Listed here: items and their measured inhibition at 0.5 µM.

Here are 3 compounds together with their reported answers.
chemical.smiles	inhibition at 0.5 µM
CN(c1nccc(Nc2cc(C3CC3)[nH]n2)n1)C1CC2(C1)CN(C(=O)c1cn(C)nn1)C2	20 to 49%
CN(c1nccc(Nc2cc(C3CCCC3)[nH]n2)n1)C1CCN(C2CC2)CC1	< 20%
CN(c1nccc(Nc2cc(C3CC3)[nH]n2)n1)C1CCN(C2CC2)CC1	20 to 49%

[ask] Which inhibition at 0.5 µM is reported for this compound? `CN(c1nccc(Nc2cc(C3CC3)[nH]n2)n1)C1CC2(C1)CN(Cc1cccc(OC(F)(F)F)c1)C2`
[reply] 20 to 49%

[ask] Which inhibition at 0.5 µM is reported for this compound? `CN(c1nccc(Nc2cc(C3CC3)[nH]n2)n1)C1CC2(C1)CN(C(=O)c1cccc(C(F)(F)F)c1)C2`
[reply] < 20%

[ask] Which inhibition at 0.5 µM is reported for this compound? `CN1CC2(CC(N(C)c3nccc(Nc4cc(C5CC5)[nH]n4)n3)C2)C1`
[reply] < 20%

[ask] Which inhibition at 0.5 µM is reported for this compound? `CN(c1nccc(Nc2cc(C3CC3)[nH]n2)n1)C1CC2(C1)CN(CC1CC1)C2`
[reply] < 20%

[ask] Which inhibition at 0.5 µM is reported for this compound? `COCCOCCN1CC2(CC(N(C)c3nccc(Nc4cc(C5CC5)[nH]n4)n3)C2)C1`
[reply] < 20%

[ask] Which inhibition at 0.5 µM is reported for this compound? `CN(c1nccc(Nc2cc(C3CC3)[nH]n2)n1)C1CCN(Cc2cc(F)cc(F)c2)CC1`
[reply] < 20%

[ask] Which inhibition at 0.5 µM is reported for this compound? `CN1CC2(CC(Nc3nccc(Nc4cc(C5CC5)[nH]n4)n3)C2)C1`
[reply] 20 to 49%

[ask] Which inhibition at 0.5 µM is reported for this compound? `CN(c1nccc(Nc2cc(C3CC3)[nH]n2)n1)C1CC2(C1)CN(CCCc1nc3ccccc3o1)C2`
[reply] 20 to 49%

[ask] Which inhibition at 0.5 µM is reported for this compound? `CN(c1nccc(Nc2cc(C3CC3)[nH]n2)n1)C1CC2(C1)CN(S(=O)(=O)c1cnn(C)c1)C2`
[reply] < 20%
